- assay-explanation: Cellular viability qHTS for adrenocortical cancer (ACC) cell line SW-13 (AID 1963989);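 further: cells grown in serum-free medium with ITS supplement; on the % scale 0 is the no-effect control and ±100 the full control effect; nearly all actives have a fitted effect of over 65% in size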
- conditions: SW-13 ACC cells viability, CellTiter-Glo, 48 h; active compounds read low
Results filed as inconclusive are left out.
value-type: activity (max response) (%)

- C#C[C@]1(O)CC[C@H]2[C@@H]3CCC4=Cc5oncc5C[C@]4(C)[C@H]3CC[C@@]21C: 0.351
- Cc1c(Nc2ncccc2C(=O)O)cccc1C(F)(F)F: -9.06
- Cc1ccnc2c1NC(=O)c1cccnc1N2C1CC1: -0.191
- CC(C)(C)NCC(O)COc1ccccc1OCC1CCCO1 (stereo unspecified): -5.68
- O=C(O)C1(C(=O)O)CCC1.[NH2-].[NH2-].[Pt+2]: 10.4
- c1ccc2c(c1)CCc1ccccc1N2: -6.25

----------
- assay-explanation: Quantitative highthroughput screen to assess conditional lethalithy of NOMO1 cells grown in RPMI1640 with dialyzed fetal bovine serum (RPMI+ds) (AID 1963877); further: nearly all actives have a fitted effect of over 30% in size; further: potency means the concentration at half of the fitted maximal effect;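 on viability: 100% = DMSO control wells and 0% = empty wells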
- conditions: NOMO1 in RPMI+dialyzed FBS viability, ATP luminescence, 48 h; series mostly up to 45.8 µM
Inconclusive results are not listed. Calls of active or inactive are those of the source. The call rests on the fitted dose curve; in most records, active means well fitted cell-killing curve with a large enough effect; inconclusive means small, poorly fitted or top-dose-only effect; inactive means flat fitted curve, though single readings scatter. Bridge positions count the residues as written; N and C are the ends. Square brackets hold non-standard residues; d marks the D form. Peptide text beside a SMILES is read from it. * marks the point of attachment. ξ: configuration not given here. Octanoyl(6-Me) = CCC(C)CCCCC(=O)*; ξThr(3R) = C[C@@H](O)C(N)C(=O)O; dDab = NCC[C@@H](N)C(=O)O; Dab = NCC[C@H](N)C(=O)O
value-type: Potency

* COc1cc(C)c(Sc2cnc(NC(=O)c3ccc(CNC(C)C(C)(C)C)cc3)s2)cc1C(=O)N1CCN(C(C)=O)CC1 (configuration not stated) | 20.9 µM (active)
* C=CC(=O)Nc1cccc(Oc2nc(Nc3ccc(N4CCN(C)CC4)cc3)ncc2Cl)c1 | 5.9 µM (active)
* CCC(C)CCCCC(=O)N[C@@H](CCN)C(=O)NC(C(=O)N[C@H](CCN)C(=O)N[C@@H]1CCNC(=O)C([C@@H](C)O)NC(=O)[C@@H](CCN)NC(=O)[C@@H](CCN)NC(=O)[C@@H](CC(C)C)NC(=O)[C@H](Cc2ccccc2)NC(=O)[C@H](CCN)NC1=O)[C@@H](C)O (stereo partly drawn) ({Octanoyl(6-Me)}-[Dab][ξThr(3R)][dDab][dDab][Dab]F[dL][dDab][dDab][ξThr(3R)]; lactam 4-C) | inactive
* C=C1C[C@@]2(O)O[C@@]3(C[C@H]2C(C)C)[C@H](C)CC[C@H]13 | inactive
* CC(C)(C)Cn1c(N)nc2ccc(-c3[nH]c(C(C)(C)C)nc3-c3ccc(F)cc3)nc21 | inactive
* O=C1NC(=O)C(=Cc2ccc3nccnc3c2)S1 | inactive
* C[C@@H](N)c1ccc(C(=O)Nc2ccnc3[nH]ccc23)cc1 | 18.7 µM (active)
* CC(=O)[C@H]1CC[C@H]2[C@@H]3CC=C4C[C@@H](O)CC[C@]4(C)[C@H]3CC[C@]12C | inactive
* O=C(Nc1cccc(Br)c1)c1cccc(S(=O)(=O)N2CCCCCC2)c1 | inactive
* Nc1[nH]nc2nnc(-c3c(-c4ccccc4)nn4ccccc34)cc12 | 2.64 µM (active)
* CC(C)(C)OC(=O)Nc1ccc(-c2cc(C(=O)NCCCCCCC(=O)NO)no2)cc1 | 9.35 µM (active)
* CNC(=O)c1ccc2cc(C3(O)CCn4cncc43)ccc2c1 (configuration not stated) | inactive
* OCCC#Cc1nc(-c2ccc(F)cc2)c(-c2ccncc2)n1CCCc1ccccc1 | inactive
* N#Cc1c(N(CC(=O)O)CC(=O)O)sc(C(=O)O)c1CC(=O)O | inactive
* CCOc1ccc(Cc2cc([C@@H]3O[C@H](CO)[C@@H](O)[C@H](O)[C@@H]3O)ccc2Cl)cc1 | inactive
* O=C(O)CSCC(=O)NC1CCSC1=O (configuration not stated) | inactive
* CCOC(=O)c1ccc(C#Cc2ccc3c(c2)C(C)(C)CCS3)nc1 | inactive
* CC(C)c1c(C(=O)Nc2ccccc2)c(-c2ccccc2)c(-c2ccc(F)cc2)n1CC[C@H](O)C[C@@H](O)CC(=O)O | 16.6 µM (active)
* COc1ccc(OC)c(-c2nnc3ccc(-c4ccc(OC)c(O[C@@H]5CCOC5)c4)nn23)c1 | inactive
* Nc1nc2c(ncn2COC(CO)CO)c(=O)[nH]1 | 26.4 µM (active)
* CCCCCCCc1ccc(CCc2cccc(O)c2C(=O)O)cc1 | inactive
* Nc1cccc2c1C(=O)N(C1CCC(=O)NC1=O)C2=O (configuration not stated) | inactive
* Nc1nc(=O)n([C@H]2CSC(CO)O2)cc1F (some centres not stated) | inactive
* NC(=O)c1cccnc1 | inactive
* O=S(=O)(O)CCS | 0.833 µM (active)
* CCN(CC)CCn1c(=O)c(Cc2ccc(OC)cc2)nc2ccccc21 | inactive
* Cc1c(OCC(F)(F)F)ccnc1CS(=O)c1nc2ccccc2[nH]1 (configuration not stated) | inactive
* C[C@@H]1C(=O)O[C@H]2CC34[C@H]5C[C@@H](C(C)(C)C)C36[C@H](OC(=O)[C@@H]6O)O[C@@]4(C(=O)O5)[C@]21O (some centres not stated) | inactive
* COc1ncnc(NS(=O)(=O)c2ccc(N)cc2)c1OC | 7.43 µM (active)
* C[C@]12C=CC(=O)N[C@@H]1CC[C@H]1[C@H]3CC[C@@H](C(=O)Nc4cc(C(F)(F)F)ccc4C(F)(F)F)[C@@]3(C)CC[C@@H]12 | inactive
* O=c1oc2c(O)c(O)cc3c(=O)oc4c(O)c(O)cc1c4c23 | inactive
* O=C(Nc1ccccc1-c1cn2c(CN3CCNCC3)csc2n1)c1cnc2ccccc2n1 | inactive
* Cc1[nH]nc2ccc(-c3cncc(OC[C@@H](N)Cc4ccccc4)c3)cc12 | 2.35 µM (active)
* CN1C(=O)C[C@H](C(=O)N[C@@H](Cc2cnc[nH]2)C(=O)N2CCC[C@@H]2C(N)=O)NC1=O | inactive
* CN[C@@H]1[C@@H](O)[C@@H](O[C@@H]2[C@@H](O)[C@H](O[C@H]3O[C@H](CN)[C@@H](O)[C@H](O)[C@@H]3O)[C@@H](N)C[C@@H]2NC(=O)[C@@H](O)CN)OC[C@]1(C)O | inactive
* CNC(=O)c1ccc(N2C(=S)N(c3ccc(C#N)c(C(F)(F)F)c3)C(=O)C2(C)C)cc1F | inactive
* COC(=O)C1C2CC3c4[nH]c5cc(OC)ccc5c4CCN3CC2CC(OC(=O)c2cc(OC)c(OC)c(OC)c2)C1OC (configuration not stated) | inactive

----------
- assay-explanation: Cellular viability qHTS for adrenocortical cancer (ACC) cell line NCI-H295R (AID 1963990); further: nearly all actives have a fitted effect of over 60% in size
- conditions: CellTiter-Glo ATP luminescence, 48 h; series mostly up to 46.1 µM
- Source text: PI: Naris Nilubol, MD Surgical Oncology Program, National Cancer Institute (NCI) National Institute of Health (NIH), Bethesda, Maryland Adrenocortical cancer (ACC) is a rare malignancy with poor survival outcomes and few treatment options. Currently, mitotane is the only FDA-approved therapy for ACC. […] Through a quantitative high-throughput drug screen (qHTS), we identified auranofin (AF), a thioredoxin reductase (TXNRD) inhibitor, as a promising candidate drug. […]
Records with an inconclusive call do not appear. Active and inactive are the calls of the source. Calls follow the shape of the dose curve; as a rule, active = well fitted cell-killing curve with a large enough effect; inconclusive = small, poorly fitted or top-dose-only effect; inactive = flat fitted curve, though single readings scatter.
Outcomes: active, inactive

- Nc1cccc2c1CN([C@H]1CCC(=O)NC1=O)C2=O: inactive
- Cc1nnc(NS(=O)(=O)c2ccc(N)cc2)s1: inactive
- Cc1cccc(N(C)C(=S)Oc2ccc3ccccc3c2)c1: inactive
- Oc1cccc2[nH]ccc12: inactive
- CC[N+](CC)(CCNC(=O)C(=O)NCC[N+](CC)(CC)Cc1ccccc1Cl)Cc1ccccc1Cl: inactive
- Cc1cc(=O)n(-c2ccccc2)n1C: inactive
- O=C(Nc1ncc(SCCN2CCCC2)s1)[C@]1(c2ccc(S(=O)(=O)C3CC3)cc2)C[C@H]1C1CCCCC1: active
- COC(=O)c1cc(Cl)c(NC(C)=O)cc1OC: inactive
- CN(C)C(=O)Nc1ccc(Cl)c(Cl)c1: inactive
- CCc1cccc(CC)c1NC(=O)CN(CC(=O)O)CC(=O)O: inactive
- Cc1c(NC(=O)c2cc(C(N)=O)nc3cc(F)ccc23)c(C(F)(F)F)nn1Cc1ccc(C(C)(C)C)cc1: inactive
- NC(=O)c1cccc(N)c1: inactive
- CCCCC(=O)OCC(=O)[C@H]1[C@H](C)C[C@H]2[C@@H]3C[C@H](F)C4=CC(=O)C=C[C@]4(C)[C@@]3(F)[C@@H](O)C[C@@]21C: inactive
- Cn1cc(-c2ccc3nnc(C(F)(F)c4ccc5ncccc5c4)n3n2)cn1: inactive
- CCN(CC)CCNC(=O)c1cc(Cl)c(N)cc1OC: inactive
- CC[C@H]1OC(=O)[C@H](C)[C@@H](O[C@H]2C[C@@](C)(OC)[C@@H](O)[C@H](C)O2)[C@H](C)[C@@H](O[C@@H]2O[C@H](C)C[C@H](N(C)C)[C@H]2O)[C@](C)(O)C[C@@H](C)C(=O)[C@H](C)[C@@H](O)[C@]1(C)O: inactive
- CN1CCC(=C2c3ccccc3Sc3ccccc32)CC1: active
- CCS(=O)(=O)c1cccc(-c2cc(C(=O)NC3CCN(C)CC3)c(C)c3[nH]c4ncc(C)cc4c23)c1: active
- NC1(C(=O)N[C@@H](CCO)c2ccc(Cl)cc2)CCN(c2ncnc3[nH]ccc23)CC1: active
- COc1ccc2nc(S(=O)Cc3ncc(C)c(OC)c3C)[nH]c2c1 (stereo not given): inactive
